TEST TARGET: human CD33
ASSAY PROCEDURE: Biacore SPR binding kinetics of anti-CD33 scFv-Fc clones with or without 10 µM MTX
TEST SETTINGS: CD33; 10 µM MTX; 37° C., pH 7.4; koff/kon, or estimated from binding response / limit of detection for weak interactions; read-out: KD, kinetics toward antigen with 10 µM MTX
MEASURED PROPERTY: Kd

Some solved entries appear below for comparison.
P02_D09: anti-CD33 clone with conditional affinity; VH SEQ ID NO: 35, VL SEQ ID NO: 36; also as scFv in CAR (antibody, V domains shown, Synthetic Antibody, also as scFv in CAR) VH: QVQLVESGGGLVQAGGSLRLSCAASRRSSRSWAMHWVRQAPGKGLEWVAVISYDGRLKYYADSVKGRFTISRDNAEYLVYLQMNSLRAEDTAVYYCAAEEGDGGFFDYWGQGTLVTVSS VL: QSVLTQPPSASGTPGQRVTISCSGSSSNIGSNYVNWYQQLPGTAPKLLIYRNNERPSGVPDRFSGSKSGTSASLAISGLRSEDEADYYCAAWDGSLSGRGVFGTGTKLTVL
> 9.29 µM
P03_H04: anti-CD33 clone with conditional affinity; VH SEQ ID NO: 39, VL SEQ ID NO: 40; also as scFv in CAR (antibody, V domains shown, Synthetic Antibody, also as scFv in CAR) VH: QVQLVESGGGLVQAGGSLRLSCAASRRSSRSWAMHWVRQAPGKGLEWVAVISYDGRLKYYADSVKGRFTISRDNAEYLVYLQMNSLRAEDTAVYYCAADPHDGYGGGPGFDYWGQGTLVTVSS VL: QSVLTQPPSASGTPGQRVTISCSGSSSNIGSNYVYWYQQLPGTAPKLLIYRSNQRPSGVPDRFSGSKSGTSASLAISGLRSEDEADYYCAAWDDTLSAVVFGTGTKLTVL
> 15.7 µM

Now let's try a different one.
Kd reported for this molecule P03_G12: anti-CD33 clone with conditional affinity; VH SEQ ID NO: 21, VL SEQ ID NO: 22 (antibody, V domains shown, Synthetic Antibody) VH: QVQLVESGGGLVQAGGSLRLSCAASRRSSRSWAMHWVRQAPGKGLEWVAVISYDGRLKYYADSVKGRFTISRDNAEYLVYLQMNSLRAEDTAVYYCAADPTEGWSYLDYWGQGTLVTVSS VL: DIQMTQSPSSLSASVGDRVTITCRASQGISSYLNWYQQKPGKAPKLLIYGASRLQSGVPSRFSGSGSGTDFTLTISSLQPEDFATYYCQQGYSSGTFGQGTKVEIK : > 10.9 µM
